IC50 for assorted compounds
- Test system: HT-29 cells
- measurement_description: HT-29 cell proliferation (Cell Titer-Glo, 6 days)
- Assay type: cell-based
- details: Homo sapiens, HT-29, 144 h
reported_property: IC50

>>> value_observed("O=C(Nc1ccc(F)c2c1nc1n2CCOC1)c1ccc(NS(=O)(=O)CCO)cc1N1CCC2(CC1)CC2")
"≤ 0.2 µM"
>>> value_observed("O=C(Nc1cccc2c1cc1n2CCOC1)c1ccc(NS(=O)(=O)CCO)cc1N1CCC2(CC1)CC2")
"≤ 0.2 µM"
>>> value_observed("O=C(Nc1ccc(F)c2c1cc1n2CCOC1)c1ccc(NS(=O)(=O)CCO)cc1N1CCC(=C(F)F)CC1")
"0.2 to 1 µM"
>>> value_observed("CC1(C)OCCn2c1cc1c(NC(=O)c3ccc(NS(=O)(=O)CCO)cc3N3CCC4(CC3)CC4)cccc12")
"≤ 0.2 µM"
>>> value_observed("CC1(C)Cn2c(nc3c(NC(=O)c4ccc(NS(=O)(=O)CCO)cc4N4CCC(=C(F)F)CC4)cccc32)CO1")
"≤ 0.2 µM"
>>> value_observed("CC1=CCCn2c1cc1c(NC(=O)c3ccc(NS(=O)(=O)CCO)cc3N3CCC4(CC3)CC4)cccc12")
"≤ 0.2 µM"
>>> value_observed("N#Cc1ccc(NC(=O)c2ccc(NS(=O)(=O)CCO)cc2N2CCC(=C(F)F)CC2)c2cc3n(c12)CCOC3")
"0.2 to 1 µM"
>>> value_observed("O=C(Nc1cccc2c1cc1n2CC2(CC2)OC1)c1ccc(NS(=O)(=O)CCO)cc1N1CCC(=C(F)F)CC1")
"0.2 to 1 µM"
>>> value_observed("CC1(C)Cn2c(cc3c(NC(=O)c4ccc(NS(=O)(=O)CCO)cc4N4CCC(=C(F)F)CC4)cccc32)CO1")
"0.2 to 1 µM"

====

- assay_target: hERG channel (Homo sapiens (Human))
- Sequence (Q12809 whole entry): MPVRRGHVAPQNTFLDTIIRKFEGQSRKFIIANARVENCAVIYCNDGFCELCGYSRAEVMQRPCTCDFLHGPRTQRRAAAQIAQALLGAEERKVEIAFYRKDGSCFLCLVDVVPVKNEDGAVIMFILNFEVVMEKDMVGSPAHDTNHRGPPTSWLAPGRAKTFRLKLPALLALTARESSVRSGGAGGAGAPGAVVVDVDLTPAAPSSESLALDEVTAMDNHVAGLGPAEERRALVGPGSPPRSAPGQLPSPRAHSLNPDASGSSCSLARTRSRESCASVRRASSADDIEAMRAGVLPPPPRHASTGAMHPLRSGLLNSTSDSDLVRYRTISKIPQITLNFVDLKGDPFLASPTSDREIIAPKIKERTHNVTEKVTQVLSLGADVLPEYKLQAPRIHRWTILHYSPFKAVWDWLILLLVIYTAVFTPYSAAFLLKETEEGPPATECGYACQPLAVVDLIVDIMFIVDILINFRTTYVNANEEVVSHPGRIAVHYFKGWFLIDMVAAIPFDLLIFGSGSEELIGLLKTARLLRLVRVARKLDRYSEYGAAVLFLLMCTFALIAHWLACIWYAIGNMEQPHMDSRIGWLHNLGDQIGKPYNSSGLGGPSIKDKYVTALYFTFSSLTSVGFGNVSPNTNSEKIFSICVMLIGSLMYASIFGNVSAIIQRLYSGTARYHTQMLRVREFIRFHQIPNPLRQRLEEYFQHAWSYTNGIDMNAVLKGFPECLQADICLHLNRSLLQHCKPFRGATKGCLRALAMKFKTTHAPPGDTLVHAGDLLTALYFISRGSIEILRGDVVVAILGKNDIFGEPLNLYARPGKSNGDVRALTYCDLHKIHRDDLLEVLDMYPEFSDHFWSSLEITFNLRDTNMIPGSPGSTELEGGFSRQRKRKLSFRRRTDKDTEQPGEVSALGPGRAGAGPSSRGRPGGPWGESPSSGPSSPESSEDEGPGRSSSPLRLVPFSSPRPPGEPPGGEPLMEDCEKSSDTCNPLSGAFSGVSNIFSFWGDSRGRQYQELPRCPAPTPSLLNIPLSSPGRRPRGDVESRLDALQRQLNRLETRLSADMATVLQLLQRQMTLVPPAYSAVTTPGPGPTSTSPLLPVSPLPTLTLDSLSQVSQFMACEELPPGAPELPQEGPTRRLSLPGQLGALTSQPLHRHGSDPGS
- measurement_description: hERG manual patch clamp test
- Type: cell-based
- details: HEK293 cells stably expressing hERG, whole-cell patch clamp; read-out: hERG IC50
pIC50: −log10 of the molar value.
// values below are reported pIC50
reported_property: pIC50

>>> value_observed("CC1(C)Cn2c(cc3c(NC(=O)c4ccc(NS(=O)(=O)CCO)cc4N4CCC5(CC4)CC5)ccc(OC(F)F)c32)CO1 [Example 523]")
"< 5.00"
>>> value_observed("CC1(C)Cn2c(cc3c(NC(=O)c4ccc(NS(=O)(=O)CCO)cc4N4CCC(=C(F)F)CC4)cccc32)CO1 [Example 370]")
"< 5.00"
>>> value_observed("COc1ccc(NC(=O)c2ccc(NS(=O)(=O)CCO)cc2N2CCC(=C(F)F)CC2)c2cc3n(c12)CC(C)(C)OC3 [Example 465]")
"< 5.00"
>>> value_observed("CC1(C)Cn2c(cc3c(NC(=O)c4ccc(NS(=O)(=O)CCO)cc4N4CCC5(CC4)CC5)cccc32)CO1 [Example 371]")
"< 5.00"
>>> value_observed("O=C(Nc1cccc2c1cc1n2CCOC1)c1ccc(NS(=O)(=O)CCO)cc1N1CCC(=C(F)F)CC1 [Example 319]")
"< 5.00"
>>> value_observed("O=C(Nc1cccc2c1cc1n2CCOC1)c1ccc(NS(=O)(=O)CCO)cc1N1CCC2(CC1)CC2 [Example 235]")
5.01

====

pIC50: −log10 of the molar value.
Lab note: pIC50 readings collected with KIF18A (Homo sapiens (Human)) for the following compounds.
reported_property: pIC50

>>> value_observed("O=C(Nc1ccc(OC(F)F)c2c1cc1n2CCC(F)(F)C1)c1ccc(NS(=O)(=O)CCO)cc1N1CCC(=C(F)F)CC1 [Example 586]")
"6.30 to 7.30"
>>> value_observed("O=C(Nc1ccnc(N2CCC(F)(F)CC2)c1)c1ccc(NS(=O)(=O)CCO)cc1OC1CCCC1 [Example 28]")
"5.30 to 6.30"
>>> value_observed("COc1ccc(NC(=O)c2ccc(NS(=O)(=O)CCO)cc2N2CCC3(CC2)CC3)c2cc3n(c12)CC(C)(C)OC3 [Example 455]")
"6.30 to 7.30"
>>> value_observed("N#Cc1ccc(NC(=O)c2ccc(NS(=O)(=O)CCO)cc2N2CCC(=C(F)F)CC2)c2cc3n(c12)CCC(F)(F)C3 [Example 378]")
"6.30 to 7.30"
>>> value_observed("Cc1ccc(NC(=O)c2ccc(NS(=O)(=O)CCO)cc2N2CCC3(CC2)CC3)c2cc3n(c12)CC(C)(C)OC3 [Example 525]")
"6.30 to 7.30"
>>> value_observed("CC1Cn2c(nc3c(NC(=O)c4ccc(NS(=O)(=O)CCO)cc4N4CCC5(CC4)CC5)ccc(F)c32)C(C)O1 (centres unmarked) [Example 445]")
"≥ 7.30"
>>> value_observed("O=C(Nc1cccc2c1CCN2CC1CC1)c1ccc(NS(=O)(=O)CCO)cc1N1CCC2(CC1)CC2 [Example 5]")
"≥ 7.30"
>>> value_observed("CNc1cc(NS(=O)(=O)CCO)cc(N2CCC3(CC2)CC3)c1C(=O)Nc1ccc(OC)c(N2CCC(F)(F)CC2)n1 [Example 491]")
"6.30 to 7.30"
>>> value_observed("COC1c2cc3c(NC(=O)c4ccc(NS(=O)(=O)CCO)cc4N4CCC5(CC4)CC5)cccc3n2CCC1(F)F (single isomer, unassigned) [Example 340-P1]")
"6.30 to 7.30"
>>> value_observed("CCS(=O)(=O)Nc1ccc(C(=O)Nc2cccc3c2cc2n3CCC(F)(F)C2O)c(N2CCC3(CC2)CC3)c1 (centres unmarked) [Compound 382]")
"≥ 7.30"
>>> value_observed("CC1(C)Cn2c(nc3c(NC(=O)c4ccc(NS(=O)(=O)CCO)cc4N4CCC5(CC4)CC5)cccc32)CO1 [Compound 391]")
"6.30 to 7.30"
>>> value_observed("CCS(=O)(=O)Nc1ccc(C(=O)Nc2cccc3c2cc2n3CCCC2O)c(N2CCC3(CC2)CC3)c1 (single isomer, unassigned) [Example 373-P2]")
"6.30 to 7.30"
>>> value_observed("[2H]C([2H])([2H])Oc1ccc(NC(=O)c2ccc(NS(=O)(=O)CCO)cc2N2CCC3(CC2)CC3)c2cc3n(c12)CC(C)(C)OC3 [Example 575]")
"6.30 to 7.30"
>>> value_observed("O=C(Nc1ccnc2c1CCCN2CC1CC1)c1ccc(NS(=O)(=O)CCO)cc1N1CCC2(CC1)CC2 [Example 8]")
"6.30 to 7.30"

====

# reported pIC50; entries follow
- assay_target: KIF18A (Homo sapiens (Human), UniProt Q8NI77)
- Sequence (Q8NI77 whole entry): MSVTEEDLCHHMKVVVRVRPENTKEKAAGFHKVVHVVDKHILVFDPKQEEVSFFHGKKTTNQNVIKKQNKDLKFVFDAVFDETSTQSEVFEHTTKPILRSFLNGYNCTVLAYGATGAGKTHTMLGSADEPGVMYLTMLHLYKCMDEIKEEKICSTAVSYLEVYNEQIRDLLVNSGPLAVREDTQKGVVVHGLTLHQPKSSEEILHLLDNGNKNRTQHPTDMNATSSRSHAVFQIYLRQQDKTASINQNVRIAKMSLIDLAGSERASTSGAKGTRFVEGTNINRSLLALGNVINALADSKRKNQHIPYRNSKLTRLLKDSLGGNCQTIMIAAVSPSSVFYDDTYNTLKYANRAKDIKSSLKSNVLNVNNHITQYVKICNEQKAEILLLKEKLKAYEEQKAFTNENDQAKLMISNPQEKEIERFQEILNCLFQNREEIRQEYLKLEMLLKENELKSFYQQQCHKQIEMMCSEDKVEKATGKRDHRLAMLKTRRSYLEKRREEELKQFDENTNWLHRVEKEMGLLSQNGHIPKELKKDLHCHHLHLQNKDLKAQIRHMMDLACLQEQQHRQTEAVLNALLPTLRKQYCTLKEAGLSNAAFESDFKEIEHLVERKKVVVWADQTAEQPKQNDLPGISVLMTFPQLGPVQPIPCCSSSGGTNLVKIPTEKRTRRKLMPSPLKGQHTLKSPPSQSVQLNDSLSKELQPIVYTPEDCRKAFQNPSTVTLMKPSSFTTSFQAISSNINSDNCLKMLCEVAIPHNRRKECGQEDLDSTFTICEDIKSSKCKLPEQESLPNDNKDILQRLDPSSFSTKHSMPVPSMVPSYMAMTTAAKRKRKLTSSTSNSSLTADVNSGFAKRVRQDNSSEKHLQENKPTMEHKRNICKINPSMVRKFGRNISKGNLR
- Sequence (P02550 whole entry partner): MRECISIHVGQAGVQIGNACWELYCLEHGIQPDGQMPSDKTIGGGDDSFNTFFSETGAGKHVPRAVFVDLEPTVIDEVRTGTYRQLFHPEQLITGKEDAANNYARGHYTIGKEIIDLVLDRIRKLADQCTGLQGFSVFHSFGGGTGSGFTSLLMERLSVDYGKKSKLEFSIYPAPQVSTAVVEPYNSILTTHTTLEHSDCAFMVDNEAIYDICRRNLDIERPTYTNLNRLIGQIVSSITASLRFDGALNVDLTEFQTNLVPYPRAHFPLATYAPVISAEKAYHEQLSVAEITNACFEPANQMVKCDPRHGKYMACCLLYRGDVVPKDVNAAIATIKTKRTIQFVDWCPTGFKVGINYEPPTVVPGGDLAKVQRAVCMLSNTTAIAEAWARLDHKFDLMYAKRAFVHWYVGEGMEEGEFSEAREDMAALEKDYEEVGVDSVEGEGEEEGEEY
- Sequence (P02554 whole entry partner): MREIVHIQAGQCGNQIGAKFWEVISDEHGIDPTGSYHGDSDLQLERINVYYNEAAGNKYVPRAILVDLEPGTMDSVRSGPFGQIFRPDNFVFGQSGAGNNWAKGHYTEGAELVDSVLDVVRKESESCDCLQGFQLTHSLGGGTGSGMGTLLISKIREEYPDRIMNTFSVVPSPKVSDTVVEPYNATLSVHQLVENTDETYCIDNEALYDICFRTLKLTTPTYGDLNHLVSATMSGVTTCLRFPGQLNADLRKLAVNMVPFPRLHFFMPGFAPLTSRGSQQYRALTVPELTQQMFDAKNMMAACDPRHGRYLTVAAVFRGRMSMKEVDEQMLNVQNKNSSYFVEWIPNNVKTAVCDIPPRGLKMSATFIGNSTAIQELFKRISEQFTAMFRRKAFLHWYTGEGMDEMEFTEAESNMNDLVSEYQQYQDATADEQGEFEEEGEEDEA
pIC50: −log10 of the molar value.
reported_property: pIC50

>>> value_observed("[2H]C([2H])([2H])OC1c2cc3c(NC(=O)c4ccc(NS(=O)(=O)CCO)cc4N4CCC(=C(F)F)CC4)cccc3n2CCC1(F)F (centres unmarked) [Compound 386]")
"6.30 to 7.30"
>>> value_observed("COc1ccc(NC(=O)c2ccc(NS(=O)(=O)CCO)cc2N2CCC3(CC2)CC3)c2cc3n(c12)CC(C)OC3C (centres unmarked)")
"6.30 to 7.30"
>>> value_observed("O=C(Nc1cccc2c1cc1n2CCC(F)(F)C1O)c1ccc(NS(=O)(=O)CCO)cc1N1CCC2(CC1)CC2 (single isomer, unassigned) [Compound 384-P2]")
"6.30 to 7.30"
>>> value_observed("CC1(Cn2ccc3c(NC(=O)c4ccc(NS(=O)(=O)CCO)cc4N4CCC5(CC4)CC5)cccc32)CC1")
"6.30 to 7.30"
>>> value_observed("CCS(=O)(=O)Nc1ccc(C(=O)Nc2cccc3c2cc2n3CCCC2O)c(N2CCC3(CC2)CC3)c1 (centres unmarked) [Example 373]")
"≥ 7.30"
>>> value_observed("O=C(Nc1ccc(F)c2c1nc1n2CCOC1)c1ccc(NS(=O)(=O)CCO)cc1N1CCC2(CC1)CC2")
"≥ 7.30"
>>> value_observed("O=C(Nc1cccc2c1cc1n2CC2CCC1O2)c1ccc(NS(=O)(=O)CCO)cc1N1CCC(=C(F)F)CC1 (centres unmarked)")
"6.30 to 7.30"
>>> value_observed("CN1CCn2c(cc3c(NC(=O)c4ccc(NS(=O)(=O)CCO)cc4N4CCC5(CC4)CC5)cccc32)C1")
"6.30 to 7.30"
>>> value_observed("O=C(Nc1cccc2c1cc1n2CCC(F)(F)C1)c1ccc(NS(=O)(=O)CCO)cc1N1CCC(=C(F)F)CC1")
"≥ 7.30"
>>> value_observed("CNc1cc(NS(=O)(=O)CCO)cc(N2CCC3(CC2)CC3)c1C(=O)Nc1cccc2c1ccn2CC1CC1")
"6.30 to 7.30"
>>> value_observed("O=C(Nc1cccc2c1cc1n2CC2(CC2)OC1)c1ccc(NS(=O)(=O)CCO)cc1N1CCC(=C(F)F)CC1")
"≥ 7.30"
>>> value_observed("[2H]C([2H])([2H])OC1c2cc3c(NC(=O)c4ccc(NS(=O)(=O)CCO)cc4N4CCC(=C(F)F)CC4)cccc3n2CCC1(F)F (single isomer, unassigned) [Compound 386-P2]")
"≥ 7.30"
>>> value_observed("Cn1ccc2c(NC(=O)c3ccc(NS(=O)(=O)CCO)cc3N3CCC4(CC3)CC4)cccc21")
"6.30 to 7.30"
>>> value_observed("O=C(Nc1cccc2c1CC1COCCN21)c1ccc(NS(=O)(=O)CCO)cc1N1CCC2(CC1)CC2 (centres unmarked)")
"6.30 to 7.30"

Source: patent US20260070887A1
